The measurements presented in this section are drawn from the NIST ThermoML archive (doi:10.1021/je800316b).

- PROTOCOL CONDITIONS: 353.15 K; 10000 kPa; Liquid
RESULT TYPE: mass density (kg/m3)

* CCn1cc[n+](CC)c1.O=S(=O)([N-]S(=O)(=O)C(F)(F)F)C(F)(F)F [1,3-diethylimidazolium bis[(trifluoromethyl)sulfonyl]imide] | 1414.5
* CCn1cc[n+](C)c1.COS(=O)(=O)[O-] [1-ethyl-3-methylimidazolium methylsulfate] | 1251.1
* CCCCCCCCCCn1cc[n+](C)c1.O=S(=O)([N-]S(=O)(=O)C(F)(F)F)C(F)(F)F | 1237.6
* CCOS(=O)(=O)[O-].CCn1cc[n+](C)c1 [1-ethyl-3-methylimidazolium ethyl sulfate] | 1209
